tgt: alanine racemase enzyme from E. Coli (Escherichia coli, UniProt P0A6B4)
Sequence (P0A6B4 whole entry): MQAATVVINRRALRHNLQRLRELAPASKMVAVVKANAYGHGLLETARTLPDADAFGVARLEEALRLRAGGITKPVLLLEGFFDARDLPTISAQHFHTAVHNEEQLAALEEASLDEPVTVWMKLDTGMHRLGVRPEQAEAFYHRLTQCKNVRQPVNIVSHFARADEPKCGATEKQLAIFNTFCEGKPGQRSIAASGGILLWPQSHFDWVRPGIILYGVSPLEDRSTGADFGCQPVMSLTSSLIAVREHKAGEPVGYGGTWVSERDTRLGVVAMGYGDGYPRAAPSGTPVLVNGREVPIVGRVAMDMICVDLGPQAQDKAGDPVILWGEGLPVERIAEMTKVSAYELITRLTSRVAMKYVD
method.notes: biochemical
test.parameters: E. Coli ALR; % Inhibition at 2.5 mM; read-out: In % (percent inhibition of alanine racemase)
Structures can show the parent of a compound that is named as a salt.
assay.metric: inhibition at 2500 µM (%)
Field format: number, assumed %, no unit text.

Output reported inhibition at 2500 µM of the compound CC(N)C(=O)NO (stereo not shown) [HzNGH(~Ha)G(O)NHOH] on alanine racemase enzyme from E. Coli (Escherichia coli, UniProt P0A6B4).
58

Please look at NC(CO)C(=O)NO (stereo not shown) [H2NCH(CH2OH)C(O)NHOH] and tell me its recorded inhibition at 2500 µM on alanine racemase enzyme from E. Coli (Escherichia coli, UniProt P0A6B4).
0

Supply inhibition at 2500 µM measured with alanine racemase enzyme from E. Coli (Escherichia coli, UniProt P0A6B4) for NC(=O)OCC(N)C(=O)NO (stereo not shown) [H2NCH(CH2OCONH2)C(O)NILIOH] .
96

Provide inhibition at 2500 µM, recorded with alanine racemase enzyme from E. Coli (Escherichia coli, UniProt P0A6B4), of N[C@@H]1CON=C1O [D-cycloserine, reference compound]
93

Fetch value of inhibition at 2500 µM on alanine racemase enzyme from E. Coli (Escherichia coli, UniProt P0A6B4) for CONC(=O)CN.O=C(O)C(F)(F)F [TFA•H2NCH2C(O)NHOCH3, Trifluoroacetic Acid] .
67

GET inhibition at 2500 µM where system = alanine racemase enzyme from E. Coli (Escherichia coli, UniProt P0A6B4) and item = NCC(=O)NO [TFA•H2NCH2G(O)NHOH, glycine hydroxamic trifluoracetic acid]
94

Retrieve inhibition at 2500 µM on alanine racemase enzyme from E. Coli (Escherichia coli, UniProt P0A6B4); query NC(=O)C(=O)NO [H2NC(O)C(O)NHOH, N-Hydroxyoxalamide]
97

====

tgt: UniProt:P0A6B4
method.notes: biochemical
test.parameters: E. Coli ALR; read-out: Ki
pKi: −log10 of the molar value.
pKi of 4 or higher: 1. Under 4: -1.

Could you tell me if the measured pKi of CONC(=O)CN.O=C(O)C(F)(F)F [TFA•H2NCH2C(O)NHOCH3, Trifluoroacetic Acid] reaches 4 or more?
-1

Textbook exercise: given the entry NCC(=O)NO [H2NCH2C(O)NHOH, glycine hydroxamic acid] , state whether its pKi is greater than or equal to 4.
1

Would you say NC(=O)OCC(N)C(=O)NO (centres unmarked) [H2NCH(CH2OCONH2)C(O)NILIOH] shows pKi at minimum 4?
1

Please tell me: is the molecule N[C@@H]1CON=C1O [D-cycloserine, reference compound] at or over 4 in terms of pKi?
1

Hi team, for NCC(=O)NO [H2NOH2G(O)NHOH] , is the recorded pKi at or above 4?
1

Could you verify whether the entry CC(N)C(=O)NO (centres unmarked) [HzNGH(~Ha)G(O)NHOH] shows pKi of no less than 4?
-1

Has NC(=O)C(=O)NO [H2NC(O)C(O)NHOH, N-Hydroxyoxalamide] a recorded pKi greater than or equal to 4?
1

====

tgt: alanine racemase enzyme from P. aeruginosa (Pseudomonas aeruginosa, UniProt Q9HTQ2, A178S/N326M/S138R/S262R)
Sequence (Q9HTQ2 whole entry S138R/A178S/S262R/N326M): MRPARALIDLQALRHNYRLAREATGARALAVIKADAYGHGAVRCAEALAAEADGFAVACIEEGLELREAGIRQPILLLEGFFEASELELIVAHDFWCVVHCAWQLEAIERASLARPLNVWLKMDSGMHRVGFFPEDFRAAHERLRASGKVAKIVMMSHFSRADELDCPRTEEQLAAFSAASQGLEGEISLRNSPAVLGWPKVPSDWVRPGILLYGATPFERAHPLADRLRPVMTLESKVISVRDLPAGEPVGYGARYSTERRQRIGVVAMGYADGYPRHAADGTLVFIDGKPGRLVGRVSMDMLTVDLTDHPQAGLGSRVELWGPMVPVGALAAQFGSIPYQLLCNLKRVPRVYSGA
method.notes: biochemical
test.parameters: P. aeruginosa ALR; % Inhibition at 2.5 mM; read-out: In % (percent inhibition of alanine racemase)
# inhibition at 2500 µM >= 90% gives Y, anything below gives N

For this molecule, is measured inhibition at 2500 µM 90% or higher? N[C@@H]1CON=C1O [D-cycloserine, reference compound]
Y

Can NC(CO)C(=O)NO (stereo not drawn) be said to have inhibition at 2500 µM at or above 90%?
N

Check this molecule for inhibition at 2500 µM at or above 90%: NC(=O)C(=O)NO [H2NC(O)C(O)NHOH, N-Hydroxyoxalamide]
Y

inhibition at 2500 µM >= 90% for CONC(=O)CN.O=C(O)C(F)(F)F [TFA•H2NCH2C(O)NHOCH3, Trifluoroacetic Acid] ?
N

# check: inhibition at 2500 µM of NC(=O)OCC(N)C(=O)NO (stereo not drawn) is greater than or equal to 90%
Y

Check this molecule for inhibition at 2500 µM at or above 90%: CC(N)C(=O)NO (stereo not drawn)
N
